- Tested on: atopic dermatitis-induced Balb/c mouse
- experiment-notes: SCORAD clinical skin score, DNFB-induced atopic dermatitis in Balb/c mouse
- Format: in vivo
- Set-up: key: sum of symptom grades, each 0 (none) to 3 (severe)
- condition-label: mean of 3 mice; DNFB Balb/c; 0.1% topical day 22-28
measured-attribute: Mean (of Sum, SCORAD)

Value of measured Mean (of Sum, SCORAD) for the entry CC(=O)N[C@@H](CC(C)C)C(=O)O : 14

Value of measured Mean (of Sum, SCORAD) for the entry CC(=O)N[C@@H](CS)C(=O)O [N-acetyl-L-cysteine, reference compound] : 12.33

Value of measured Mean (of Sum, SCORAD) for the entry CC(=O)NCC(=O)O : 14.67

Value of measured Mean (of Sum, SCORAD) for the entry CC(=O)N[C@@H](CC(=O)O)C(=O)O : 13

Value of measured Mean (of Sum, SCORAD) for the entry CC[C@H](C)[C@H](NC(C)=O)C(=O)O : 14.33

Value of measured Mean (of Sum, SCORAD) for the entry CC(=O)N1CCC[C@H]1C(=O)O : 13.33

Value of measured Mean (of Sum, SCORAD) for the entry CC(=O)N[C@@H](CCC(=O)O)C(=O)O : 13

Value of measured Mean (of Sum, SCORAD) for the entry CC(=O)N[C@H](C(=O)O)C(C)C : 13

Value of measured Mean (of Sum, SCORAD) for the entry CC(=O)N[C@@H](Cc1c[nH]c2ccccc12)C(=O)O : 4

Value of measured Mean (of Sum, SCORAD) for the entry CC(=O)N[C@@H](Cc1c[nH]cn1)C(=O)O : 14.67

Value of measured Mean (of Sum, SCORAD) for the entry CC(=O)N[C@@H](C)C(=O)O : 5

Value of measured Mean (of Sum, SCORAD) for the entry CC(=O)N[C@@H](CCCNC(=N)N)C(=O)O : 5.67

Value of measured Mean (of Sum, SCORAD) for the entry CC(=O)N[C@H](C(=O)O)[C@@H](C)O : 6

Value of measured Mean (of Sum, SCORAD) for the entry CC(=O)N[C@@H](CCCCN)C(=O)O : 14

Value of measured Mean (of Sum, SCORAD) for the entry CC(=O)N[C@@H](CO)C(=O)O : 14

Value of measured Mean (of Sum, SCORAD) for the entry CC(=O)N[C@@H](CCC(N)=O)C(=O)O : 12

Value of measured Mean (of Sum, SCORAD) for the entry CC(=O)N[C@@H](Cc1ccc(O)cc1)C(=O)O : 14.33

Value of measured Mean (of Sum, SCORAD) for the entry CSCC[C@H](NC(C)=O)C(=O)O : 14.67

Value of measured Mean (of Sum, SCORAD) for the entry CC(=O)N[C@@H](Cc1ccccc1)C(=O)O : 14

Value of measured Mean (of Sum, SCORAD) for the entry CC(=O)N[C@@H](CC(N)=O)C(=O)O : 15
